Test name: qHTS assay to identify small molecule antagonists of the estrogen related receptor (ERR) signaling pathway (AID 1224819; note: nearly all actives have a fitted effect of over 50% in size)
Measurement parameters: ERR reporter cell line, luciferase inhibition; series mostly up to 46.1 µM
Description: National Center for Advancing Translational Sciences [NCATS] NIH Chemical Genomics Center [NCGC] U.S. Environmental Protection Agency [EPA] National Institutes of Environmental Health Sciences [NIEHS] National Toxicology Program [NTP] […] The ERR cells were dispensed at 2,000 cells/5 ul/well in 1536-well white plates using a Multidrop dispenser. […] After 30 min incubation at room temperature, the luminescence intensity in the plates was measured using a ViewLux plate reader.
Records with an inconclusive call do not appear. Activity calls are given as the source filed them. Calls come from the whole dose curve; as a rule, active = well fitted inhibition curve with a large enough effect in the repeat runs; inconclusive = weak or mixed curves; inactive = no such curve, though single readings can be large or run the other way.
Outcome codes: 1 = active, -1 = inactive

Compound	Assigned label
CS(=O)(=O)c1ccc(-n2nc(C(F)(F)F)cc2-c2ccc(F)cc2)cc1	-1
CCN(c1nc(N)c(C(=O)N=C(N)N)nc1Cl)C(C)C	1
CCNc1nc2c(ncn2[C@H]2C[C@H](O)[C@@H](CO)O2)c(=O)[nH]1	-1
Brc1c(Br)c(Br)c2[nH]cnc2c1Br	1
CN[C@H](CC(C)C)C(=O)N[C@H]1C(=O)N[C@@H](CC(N)=O)C(=O)N[C@H]2C(=O)N[C@H]3C(=O)N[C@H](C(=O)N[C@H](C(=O)O)c4cc(O)cc(O)c4-c4cc3ccc4O)[C@H](O)c3ccc(c(Cl)c3)Oc3cc2cc(c3O[C@@H]2O[C@H](CO)[C@@H](O)[C@H](O)[C@H]2O[C@H]2C[C@](C)(N)[C@H](O)[C@H](C)O2)Oc2ccc(cc2Cl)[C@H]1O	-1
CC(=O)NNC(=O)N1Cc2ccccc2Oc2ccc(Cl)cc21	-1
NCCCCN	-1
NC(=O)CC[C@H](N)C(=O)O	-1
Nc1ccc2c3c(cccc13)C(=O)NC2=O	-1
C=CC[C@H](N)C(=O)O	-1
CCCn1c(=O)[nH]c(=O)c2[nH]cnc21	-1
CC(C)c1ccc2c(c1)c(SC(C)(C)C)c(CC(C)(C)C(=O)O)n2Cc1ccc(Cl)cc1	1
CN1C2CCC1CC(OC(=O)C(O)c1ccccc1)C2 (stereo not given)	-1
Nn1nnc2ccccc21	-1
NC[C@@H]1O[C@H](C23CC4CC(CC(C4)C2)C3)Cc2c1ccc(O)c2O	1
CN1C2CCCC1CC(NC(=O)c1nn(C)c3ccccc13)C2 (stereo not given)	-1
CC(=O)O[C@H]1C[C@@H]2CC[C@@H]3[C@H](CC[C@@]4(C)[C@H]3C[C@H]([N+]3(C)CCCCC3)[C@@H]4OC(C)=O)[C@@]2(C)C[C@@H]1[N+]1(C)CCCCC1	-1
O=S(=O)(c1cccc2c(I)cccc12)N1CCCNCC1	-1
NC/C=C\C(=O)O	-1
O=C(O)CCc1ccc(NCc2cccc(Oc3ccccc3)c2)cc1	-1
Clc1ccc2c(N3CCN(CCCN4CCN(c5ccnc6cc(Cl)ccc56)CC4)CC3)ccnc2c1	-1
C[C@H](O)C(=O)C1=Nc2c(nc(N)[nH]c2=O)NC1	-1
O=C1NC(=O)C(c2ccccc2[N+](=O)[O-])=C1Nc1ccc(O)c(Cl)c1	-1
C=C1C[C@@]23CC[C@H]4[C@@](C)(CCC[C@@]4(C)C(=O)OC4OC(CO)C(O)C(O)C4O)[C@@H]2CC[C@]1(OC1OC(CO)C(O)C(O)C1OC1OC(CO)C(O)C(O)C1O)C3 (stereo not given in full)	-1
CNc1ncnc2c1ncn2[C@H]1C[C@H](OP(=O)(O)O)[C@@H](COP(=O)(O)O)O1	-1
C[C@](Cc1ccc(O)c(O)c1)(NN)C(=O)O	-1
COc1cc(OC)c(/C=C2/C(=O)Nc3ccccc32)c(OC)c1	1
NS(=O)(=O)c1cccc2c1c([N+](=O)[O-])cc1nc(O)c(O)nc12	-1
Cn1ccnc1	-1
Cc1ccc(S(=O)(=O)/C=C/C#N)cc1	-1
COc1ccc2c(c1)c(CC(=O)O)c(C)n2Cc1ccc(Cl)cc1	-1
Nc1nc2c(ncn2[C@@H]2O[C@H](CO)[C@@H](O)[C@@H]2O)c(=O)[nH]1	-1
N[C@H](C(=O)O)[C@H](O)C(=O)O	-1
N[C@@H](CC(=O)O)C(=O)O	-1
COCCOc1cc2nc[nH]c(=O)c2cc1OCCOC	-1
NCCS(=O)O	-1
CN(C)c1cc2c(Nc3ccc4c(cnn4Cc4ccccc4)c3)ncnc2cn1	1
c1ccc2occc2c1	-1
N[C@H](C(=O)O)c1cc(O)cc(O)c1	-1
Brc1cc2c(cc1[C@H]1Nc3ccccc3[C@H]3C=CC[C@H]31)OCO2	-1
